Data provenance is ChEMBL document CHEMBL1201862.

System: SK-MEL-5
ASSAY_DETAILS: NCI tumour cell line growth inhibition, 48 h
The source made the active and inactive calls. No stated cut-off is given here; in the data, active = GI50 up to about 1.1 µM and inactive = higher.
Kindly supply the reported GI50 values for the records listed here.

The following molecules have reported results that may help.
NCCCNCCSSCc1ccccc1CSSCCNCCCN    79.3 µM (inactive)
CC(=O)OC1COC(N2CCc3cc([N+](=O)[O-])ccc32)C(OC(C)=O)C1OC(C)=O (configuration not stated)    > 100 µM (inactive)
O=C1C=CC(=C(c2ccccc2)c2ccc(O)cc2)C=C1    11.5 µM (inactive)
CSc1c(C#N)c(O)nc(N)c1C(=O)Nc1ccc(C)cc1    > 100 µM (inactive)
CC1=NN(c2cccc(Cl)c2)C2(C1)SCC(=O)N2c1nc2ccccc2s1 (configuration not stated)    17.5 µM (inactive)

Please state, for each entry, its recorded GI50.
1. C=C1C(=O)[C@]23[C@H](O)[C@H]1CC[C@H]2[C@@]12CO[C@@]3(O)C[C@@H]1C(C)(C)CC[C@@H]2O [MEGATHYRIN A]
2. OCC1OC(NC(=S)NCCC(F)(F)C(F)(F)C(F)(F)C(F)(F)C(F)(F)C(F)(F)F)C(O)C(O)C1O (configuration not stated)
3. CC(C)NC(=O)OCc1c(COC(=O)NC(C)C)c(-c2cc[n+](COC(=O)C(C)C)cc2)n2c1CCC2
4. C=CCOc1ccc(C(=N/NC(=O)c2ccccc2)/N=N/c2ccccc2)cc1OC
5. O=C(O)CCCCC1CCSS1 (stereo not drawn) [LIPOIC ACID, ALPHA]
6. CC[C@H](NC1=C(Cl)C(=O)c2c(O)ccc(O)c2C1=O)C(=O)OC
7. CN(C)CCNC(=O)c1ccccc1Nc1c(Cl)cccc1Cl
8. CCCCCCCCCCCC[N+](CCCCCCCCCCCC)=C1SCCS1

Reply |
1: 13 µM (inactive); 2: 35.6 µM (inactive); 3: > 100 µM (inactive); 4: 50.5 µM (inactive); 5: > 100 µM (inactive); 6: 6.53 µM (inactive); 7: 2.89 µM (inactive); 8: 6.07 µM (inactive)

# per-item lookup of GI50; items listed below
1. CCCCCC(O)C(O)CCC[C@H](O)[C@H]1CC[C@H]([C@H]2CC[C@H]([C@H](O)CCCCCCCCCCCCC3=C[C@H](C)OC3=O)O2)O1 (some centres not stated)
2. O=C(c1ccccc1)n1cc(-c2ccccc2)c2c(=O)nc[nH]c21
3. COC(=O)NN(C(=O)OC)c1c(-c2ccccc2)nc(SC)n1N
4. C=C(C)[C@@H]1CC[C@]2(C(=O)O)CC[C@]3(C)[C@H](CC[C@@H]4[C@@]5(C)CC[C@H](C(=O)/C=C/c6ccc(O)cc6)C(C)(C)[C@@H]5CC[C@]43C)[C@@H]12
5. CC(=O)OC12CC(C)C3(O)C4C=C(C)C(=O)[C@@]4(O)CC(CO)=C[C@H]3C1C2(C)C (some centres not stated)

Reply |
1. 1.22 µM (inactive)
2. > 100 µM (inactive)
3. > 100 µM (inactive)
4. 2.55 µM (inactive)
5. 5.2 µM (inactive)

Your task in this section: give GI50 for each listed record.
1. CCOC(=O)c1c2c(n(-c3ccc(C)cc3)c1C)-c1ccccc1C(=O)C2(C(=O)OCC)C(=O)OCC
2. [N-]=[N+]=Nc1c(Cl)c(=O)n(-c2ccccc2)c2ccccc12
3. C=CCN(N=O)C(=O)N(CCC)CCCC(NC(C)=O)C(=O)NCc1ccccc1 (configuration not stated)
4. C=CCn1c(=O)c(C)cn(COCCO)c1=O
5. CC(C)(C)OC(=O)NNC(=O)C1Cc2ccccc2OC1=O (configuration not stated)
6. O=C1/C(=C/c2ccc(O)cc2)CC/C1=C\c1ccc(O)cc1
7. NC(=S)N/N=C1\c2ccccc2CCC1CCC1(O)CCc2ccccc2C1=O (configuration not stated)
8. CC(=O)C1=C(C)Cn2c(=O)c3ccccc3c(=O)n2C1

Reply |
["19.2 µM (inactive)", "3.15 µM (inactive)", "> 100 µM (inactive)", "> 100 µM (inactive)", "> 100 µM (inactive)", "> 100 µM (inactive)", "15 µM (inactive)", "> 100 µM (inactive)"]

Could you tell me GI50 for each of these molecules? They are listed below.
1. COC1=CC(=O)C=C(OC)C1=O [2,6-DIMETHOXYQUINONE]
2. CC(C)(C)c1cc(Cc2ccc([N+](C)(C)C)cc2)c(O)c(C(C)(C)C)c1
3. COc1cc(C2SCC(=O)N2c2ccccn2)cc(OC)c1OC (configuration not stated)
4. Cc1ccc(S(=O)(=O)SCc2ccccc2)cc1
5. CCC(C)NC(=S)N/N=C(\C)c1nc2cccnc2[nH]1 (configuration not stated)
6. CCCCN[C@H]1C2C3CC4C5CC(C42)C1(C)C53 (some centres not stated)

Reply |
["20.9 µM (inactive)", "10.6 µM (inactive)", "55 µM (inactive)", "25.6 µM (inactive)", "4.72 µM (inactive)", "> 100 µM (inactive)"]

Working through the 2 molecules below one at a time, give GI50 for each.
1. Cc1ccc(C)c(NC(=O)C(=O)C2C(=O)N(c3ccccc3)N=C2N)c1 (configuration not stated)
2. COc1cc(C2C(C(=O)O)=C(CO)Oc3cc4c(cc32)OCO4)cc(OC)c1OC (configuration not stated)

Reply |
["> 100 µM (inactive)", "> 100 µM (inactive)"]

Would you be so kind as to report GI50 for each listed record?
1. OCCN(CO)CO
2. Cc1cc(C)nc(NS(=O)(=O)c2ccc(NNc3c4ccccc4nc4c(C(=O)Nc5ccc(S(=O)(=O)N=C(N)N)cc5)cccc34)cc2)n1
3. CC(C)[C@H](NC(=O)OCc1ccccc1)C(=O)N[C@H](/C=C/C(=O)OC(C)(C)C)CO
4. O=C(Nc1ccc2ncccc2c1)Nc1ccc2ncccc2c1
5. c1cc2nnc1SCCSCCSc1ccc(nn1)SCCSCCS2
6. O=[N+]([O-])C(Cl)C(Cl)C(Cl)=C(Cl)Cl (configuration not stated)
7. COc1cc2c(OC)cc1CSCc1sc(C)c(c1Br)CSC2

Reply |
1: > 100 µM (inactive); 2: 53.1 µM (inactive); 3: > 100 µM (inactive); 4: > 100 µM (inactive); 5: > 100 µM (inactive); 6: 15 µM (inactive); 7: > 100 µM (inactive)

Ask | Given the entry CC(=O)c1sc2c(c1OC(=O)c1cccs1)c(=O)n(-c1ccccc1)c(=S)n2-c1ccccc1 , report its measured GI50.
Reply | 12.1 µM (inactive)
